src = patent US10787435B2

# IC50 per entry
Molecular target: ASK1/MAP3K5 (Homo sapiens (Human), UniProt Q99683)
Sequence (Q99683 whole entry): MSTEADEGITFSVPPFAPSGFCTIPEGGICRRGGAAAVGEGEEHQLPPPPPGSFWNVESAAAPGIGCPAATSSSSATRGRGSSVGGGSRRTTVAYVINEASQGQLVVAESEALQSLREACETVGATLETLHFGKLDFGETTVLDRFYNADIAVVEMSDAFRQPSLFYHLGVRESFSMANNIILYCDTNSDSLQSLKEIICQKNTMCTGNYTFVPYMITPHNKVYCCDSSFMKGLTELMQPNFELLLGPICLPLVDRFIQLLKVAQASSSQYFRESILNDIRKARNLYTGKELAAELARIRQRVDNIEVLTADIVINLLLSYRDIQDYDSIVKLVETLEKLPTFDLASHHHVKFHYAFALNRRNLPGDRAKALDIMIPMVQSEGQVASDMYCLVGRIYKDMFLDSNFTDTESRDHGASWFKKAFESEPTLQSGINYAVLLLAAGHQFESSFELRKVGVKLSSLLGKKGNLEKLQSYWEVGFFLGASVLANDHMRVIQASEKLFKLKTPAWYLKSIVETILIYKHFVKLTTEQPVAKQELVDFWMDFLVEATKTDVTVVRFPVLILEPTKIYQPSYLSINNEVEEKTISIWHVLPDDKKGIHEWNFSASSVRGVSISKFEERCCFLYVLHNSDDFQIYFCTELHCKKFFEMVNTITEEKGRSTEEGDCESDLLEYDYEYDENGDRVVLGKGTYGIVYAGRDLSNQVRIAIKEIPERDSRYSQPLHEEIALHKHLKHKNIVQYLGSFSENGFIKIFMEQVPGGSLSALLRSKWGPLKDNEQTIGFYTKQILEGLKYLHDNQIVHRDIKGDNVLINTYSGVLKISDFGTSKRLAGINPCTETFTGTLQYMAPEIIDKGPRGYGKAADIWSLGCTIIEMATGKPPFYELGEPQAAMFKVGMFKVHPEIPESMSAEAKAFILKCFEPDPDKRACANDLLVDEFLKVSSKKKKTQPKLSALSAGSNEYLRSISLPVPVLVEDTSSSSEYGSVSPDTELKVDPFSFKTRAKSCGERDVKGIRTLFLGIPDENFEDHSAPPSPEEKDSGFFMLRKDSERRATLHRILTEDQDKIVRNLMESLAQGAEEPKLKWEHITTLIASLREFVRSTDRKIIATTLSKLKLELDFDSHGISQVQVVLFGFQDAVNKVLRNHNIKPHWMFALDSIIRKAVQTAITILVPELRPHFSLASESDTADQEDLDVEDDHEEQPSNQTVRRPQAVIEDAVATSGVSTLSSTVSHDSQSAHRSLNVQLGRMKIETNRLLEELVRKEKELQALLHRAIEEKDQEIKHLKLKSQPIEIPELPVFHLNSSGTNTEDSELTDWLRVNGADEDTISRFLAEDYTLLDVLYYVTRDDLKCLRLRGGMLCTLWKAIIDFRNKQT
Experiment: Evaluation of in vitro enzyme activity (33P-ATP radiometric kinase assay, MBP substrate)
Details: recombinant human full length GST-tagged ASK1 20 nM, MBP 20 μM

Solved cases below.
Cc1cc2c(cc1-n1cnc(C3CC3)c1)C(=O)N(c1cccc(-c3nnc4n3CCCC4)n1)CC2 | ≤ 50 nM
CC(C)n1cnnc1-c1cccc(-n2cnc3cc(-c4ccc(N)nc4)c(-n4cnc(C5CC5)c4)cc3c2=O)n1 | ≤ 50 nM
Cc1cc2ncn(-c3cccc(-c4nnc(C)n4C)n3)c(=O)c2cc1-n1cnc(C2CC2)c1 | > 1000 nM

Kindly review the next compound as well.
## Task State the measured IC50 (ASK1/MAP3K5 (Homo sapiens (Human), UniProt Q99683)) of CC(C)n1cnnc1-c1cccc(-n2cnc3cc(-c4ccsc4)c(-n4cnc(C5CC5)c4)cc3c2=O)n1
## Result ≤ 50 nM

---

# IC50 per entry
Target: ASK1/MAP3K5 (Homo sapiens (Human))
Assay: Evaluation of in vitro enzyme activity (33P-ATP radiometric kinase assay, MBP substrate)
Settings: recombinant human full length GST-tagged ASK1 20 nM, MBP 20 μM

Solved cases below.
Cc1cc2ncn(-c3cccc(-c4nncn4C(C)(C)C)n3)c(=O)c2cc1-n1cnc(C2CC2)c1 | ≤ 50 nM
Cc1cc2ncn(-c3cccc(-c4nncn4C4CC4)n3)c(=O)c2cc1-n1cnc(C2CC2)c1 | ≤ 50 nM
Cc1cc2c(cc1-n1cnc(C3CC3)c1)C(=O)N(c1cccc(-c3nnc4n3CCC4)n1)CC2 | ≤ 50 nM
Cc1cc2ncn(-c3cccc(-c4nnc5n4CCC5)n3)c(=O)c2cc1-n1cnc(C2CC2)c1 | 50 to 1000 nM
Cc1cc2ncn(-c3cccc(-c4nncn4C(C)C)n3)c(=O)c2cc1-n1cnc(-c2ccccc2)c1 | ≤ 50 nM

## Task Identify IC50 associated with the compound Cc1cc2c(F)cn(-c3cccc(-c4nnc5n4CCCC5)n3)c(=O)c2cc1-n1cnc(C2CC2)c1
## Result 50 to 1000 nM

## Task Identify IC50 associated with the compound CNC(=O)COc1cc2ncn(-c3cccc(-c4nncn4C(C)C)n3)c(=O)c2cc1-n1cnc(C2CC2)c1
## Result ≤ 50 nM

## Task Identify IC50 associated with the compound Cc1cc2c(F)cn(-c3cccc(-c4nncn4C(C)C)n3)c(=O)c2cc1-n1cnc(C2CC2)c1
## Result ≤ 50 nM

## Task Identify IC50 associated with the compound Cc1ccc(-c2cc3ncn(-c4cccc(-c5nncn5C(C)C)n4)c(=O)c3cc2-n2cnc(C3CC3)c2)cn1
## Result ≤ 50 nM

## Task Identify IC50 associated with the compound CC(C)n1cnnc1-c1cccc(N2CCc3ccc(-n4cnc(C5CC5)c4)cc3C2=O)n1
## Result ≤ 50 nM

## Task Identify IC50 associated with the compound Cc1cc2ncn(-c3cccc(-c4nncn4C4CCC(F)(F)CC4)n3)c(=O)c2cc1-n1cnc(C2CC2)c1
## Result 50 to 1000 nM

## Task Identify IC50 associated with the compound CCC(CC)n1cnnc1-c1cccc(-n2cnc3cc(C)c(-n4cnc(C5CC5)c4)cc3c2=O)n1
## Result ≤ 50 nM
